target: human CTLA-4 (human) (UniProt P16410); test: flow cytometry, CHO cells expressing CTLA4
Sequence (P16410 36-223): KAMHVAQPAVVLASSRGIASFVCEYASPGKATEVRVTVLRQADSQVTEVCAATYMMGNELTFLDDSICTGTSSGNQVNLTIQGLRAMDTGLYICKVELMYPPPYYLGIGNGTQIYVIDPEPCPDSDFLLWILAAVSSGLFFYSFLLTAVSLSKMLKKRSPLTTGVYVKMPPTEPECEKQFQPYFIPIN
result type: MFI at 33.3 nM (MFI)

binder: CD80 H18Y/E35D/V68M/T79M/L85M IgV-Fc (Fc fusion) VIHVTKEVKEVATLSCGYNVSVEELAQTRIYWQKDKKMVLTMMSGDMNIWPEYKNRTIFDITNNLSIMILALRPSDEGMYECVVMKYEKDAFKREHLAEVTLSVKAD
measurement units: MFI
MFI at 33.3 nM: 16300
--
binder: CD80 E35D/M47L/Y53F/V68M/A71G/K93R/E95V IgV-Fc (Fc fusion) VIHVTKEVKEVATLSCGHNVSVEELAQTRIYWQKDKKMVLTMMSGDLNIWPEFKNRTIFDITNNLSIMILGLRPSDEGTYECVVLKYEKDAFRRVHLAEVTLSVKAD
measurement units: MFI
MFI at 33.3 nM: 16000
--
binder: CD80 E35D/M47V/N48K/V68M/A71G/L85M IgV-Fc (Fc fusion) VIHVTKEVKEVATLSCGHNVSVEELAQTRIYWQKDKKMVLTMMSGDVKIWPEYKNRTIFDITNNLSIMILGLRPSDEGTYECVVMKYEKDAFKREHLAEVTLSVKAD
measurement units: MFI
MFI at 33.3 nM: 16600
--
binder: CD80 T13R/Q33R/E35D/M47L/V68M IgV-Fc (Fc fusion) VIHVTKEVKEVARLSCGHNVSVEELAQTRIYWRKDKKMVLTMMSGDLNIWPEYKNRTIFDITNNLSIMILALRPSDEGTYECVVLKYEKDAFKREHLAEVTLSVKAD
measurement units: MFI
MFI at 33.3 nM: 20700
--
binder: CD80 H18Y/E35D/M47V/V68M/L85M IgV-Fc (Fc fusion) VIHVTKEVKEVATLSCGYNVSVEELAQTRIYWQKDKKMVLTMMSGDVNIWPEYKNRTIFDITNNLSIMILALRPSDEGTYECVVMKYEKDAFKREHLAEVTLSVKAD
measurement units: MFI
MFI at 33.3 nM: 18400

src = patent US20220177587A1
